// provenance: patent US20150087577A1

Below: a set of entries, each annotated with reported IC50 (nM) Ca2+ assay (method 1).
biological target: human CXCR4 (human, UniProt P61073 1-352); experiment: cell-based or functional assay
Sequence (P61073 whole entry): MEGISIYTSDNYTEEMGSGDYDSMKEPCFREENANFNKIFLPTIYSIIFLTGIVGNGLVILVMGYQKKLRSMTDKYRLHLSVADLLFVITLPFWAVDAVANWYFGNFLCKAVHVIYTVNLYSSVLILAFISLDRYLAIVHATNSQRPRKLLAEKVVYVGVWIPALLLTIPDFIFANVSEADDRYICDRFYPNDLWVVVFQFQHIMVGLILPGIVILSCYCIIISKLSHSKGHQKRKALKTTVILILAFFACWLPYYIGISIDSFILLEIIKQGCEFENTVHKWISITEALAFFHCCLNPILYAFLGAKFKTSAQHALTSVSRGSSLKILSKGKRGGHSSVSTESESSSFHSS
[ ]: non-standard residue; d: D form. 2Nal = N[C@@H](Cc1ccc2ccccc2c1)C(=O)O; Cit = NC(=O)NCCC[C@H](N)C(=O)O
OBSERVED_PROPERTY: IC50 (nM) Ca2+ assay (method 1)

cyclo(YR[Cit]VR[dR]R[2Nal]FY[Cit]K[dP]P) (SMILES CC(C)[C@@H]1NC(=O)[C@H](CCCNC(N)=O)NC(=O)[C@H](CCCNC(=N)N)NC(=O)[C@H](Cc2ccc(O)cc2)NC(=O)[C@@H]2CCCN2C(=O)[C@H]2CCCN2C(=O)[C@H](CCCCN)NC(=O)[C@H](CCCNC(N)=O)NC(=O)[C@H](Cc2ccc(O)cc2)NC(=O)[C@H](Cc2ccccc2)NC(=O)[C@H](Cc2ccc3ccccc3c2)NC(=O)[C@H](CCCNC(=N)N)NC(=O)[C@@H](CCCNC(=N)N)NC(=O)[C@H](CCCNC(=N)N)NC1=O) [Example 1]; 2280
cyclo(YR[Cit]FRG[dP]RR[2Nal]FY[Cit]K[dP]P) (SMILES N=C(N)NCCC[C@@H]1NC(=O)[C@H](Cc2ccccc2)NC(=O)[C@H](CCCNC(N)=O)NC(=O)[C@H](CCCNC(=N)N)NC(=O)[C@H](Cc2ccc(O)cc2)NC(=O)[C@@H]2CCCN2C(=O)[C@H]2CCCN2C(=O)[C@H](CCCCN)NC(=O)[C@H](CCCNC(N)=O)NC(=O)[C@H](Cc2ccc(O)cc2)NC(=O)[C@H](Cc2ccccc2)NC(=O)[C@H](Cc2ccc3ccccc3c2)NC(=O)[C@H](CCCNC(=N)N)NC(=O)[C@H](CCCNC(=N)N)NC(=O)[C@H]2CCCN2C(=O)CNC1=O) [Example 38]; 720
